The following binders are shown together with reported koff values.
# target: T1, human activated protein C (human, UniProt P04070 43-197; P04070 212-461)
# T1 construct: also called human aPC; human APC
# experiment: SPR (Biacore), 1:1 binding model
Quick reminder: number only, in s⁻¹, skip the unit.

[
  {
    "binder": "Hu1573-11 (antibody, V domains shown, Humanized IgG, human gamma 1 / kappa constant regions by vectors pCP-hCg1 and pCP-hck; also called H1573VH.1D + H1573Vk.2B) VH: EVQLVESGGGLVQPGGSLRLSCAASGFTFSNYYLNWVRQAPGKGLEWVGDIRLKSNNYEKHYAESVKGRFTISRDDSKSSLYLQMNSLKTEDTAVYYCIREGDYFDYWGQGTTVTVSS VL: DIVMTQTPLSLSVTPGQPASISCRASESVDSFGATFMHWYLQKPGQPPQLLIYLASNLESGVPDRFSGSGSRTDFTLKISRVEAEDVGVYYCQQNNEDPYTFGQGTKLEIKR",
    "koff (s⁻¹)": 0.00896
  }
]

Now for the binder whose koff we want.
Report koff, nothing else, for this binder: Hu1573-16 (antibody, V domains shown, Humanized IgG, human gamma 1 / kappa constant regions by vectors pCP-hCg1 and pCP-hck; also called H1573VH.1F + H1573Vk.2A) VH: EVQLVESGGGLVQPGGSLRLSCAASGFTFSNYYLNWVRQAPGKGLEWVADIRLKSNNYEKHYAESVKGRFTISRDDSKSSVYLQMNSLKTEDTAVYYCIREGDYFDYWGQGTTVTVSS VL: DIVLTQTPLSLSVTPGQPASISCRASESVDSFGATFMHWYLQKPGQPPQLLIYLASNLESGVPDRFSGSGSGTDFTLKISRVEAEDVGVYYCQQNNEDPYTFGQGTKLEIKR
0.00643
